test: Cytotoxicity determination in HepG2.2.15 cells (CCK-8); assay type: cell-based; settings: human, 6 days treatment, CCK-8, highest concentration 100 uM
endpointName: CC50 at 6 days (µM)
Kindly answer with a numeric value in µM, unit omitted.

Examples with their reported CC50 at 6 days follow.
INSERT INTO assay_data (compound, endpointname, reported) VALUES
  ('COC(=O)C1=C(C2CCN(c3ncc(CC(=O)O)cn3)CC2)NC(c2nccs2)=NC1c1ccc(F)cc1Cl (single isomer, unassigned)', 'CC50 at 6 days', 14),
  ('COC(=O)C1=C([C@H]2CC[C@H](c3cnn(CCC(=O)O)c3)CC2)NC(c2nccs2)=NC1c1ccc(F)cc1Cl (single isomer, unassigned)', 'CC50 at 6 days', 11.2);

Now consider a different compound.
Exercise: Requested field: CC50 at 6 days. Item: COC(=O)C1=C(C2CCN(c3ncc([C@]4(O)C[C@@H](C(=O)O)C4)cn3)CC2)NC(c2nccs2)=NC1c1ccc(F)c(F)c1Cl (single isomer, unassigned)
Key: 11
